target: CYP2E1 (Homo sapiens, UniProt P05181); assay: Inhibition of CYP2E1 in human liver microsomes assessed as remaining activity at 10 uM using chlorzoxazone as substrate preincubated for 5 mins followed by addition of NADPH regenerating system and measured after 15 mins by LC-MS/MS analysis relative to control; format: ADME; conditions: probe chlorzoxazone, read-out: Activity
Sequence (P05181 whole entry): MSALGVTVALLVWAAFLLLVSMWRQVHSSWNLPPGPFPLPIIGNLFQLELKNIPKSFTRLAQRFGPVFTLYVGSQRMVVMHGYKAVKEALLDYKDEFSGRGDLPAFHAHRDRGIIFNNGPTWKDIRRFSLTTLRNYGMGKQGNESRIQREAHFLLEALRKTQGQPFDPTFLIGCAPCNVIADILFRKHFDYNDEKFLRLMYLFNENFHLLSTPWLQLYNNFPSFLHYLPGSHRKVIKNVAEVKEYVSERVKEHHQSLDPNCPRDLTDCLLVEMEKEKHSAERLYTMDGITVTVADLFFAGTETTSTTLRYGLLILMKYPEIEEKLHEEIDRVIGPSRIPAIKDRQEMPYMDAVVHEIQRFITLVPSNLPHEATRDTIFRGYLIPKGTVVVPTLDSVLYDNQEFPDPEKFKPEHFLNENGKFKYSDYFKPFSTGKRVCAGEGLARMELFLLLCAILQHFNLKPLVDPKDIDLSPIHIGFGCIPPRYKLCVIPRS
observable: activity at 0.25 h, 10 µM (%)

| structure.smiles | value.observed |
| --- | --- |
| CN(c1ncnc2[nH]ccc12)[C@H]1CN(S(=O)(=O)c2cccc(C#N)c2)CC12CC2 | 59.8 |
| CCS(=O)(=O)N1C[C@H](N(C)c2ncnc3[nH]ccc23)C2(CC2)C1 | 63.9 |
| CN(c1ncnc2[nH]ccc12)[C@H]1CN(C(=O)CC#N)CC12CC2 | 50.3 |

* * *

system: Rattus norvegicus; experiment: AUC (0 to t) in Sprague-Dawley rat at 5 mg/kg, iv after 0.08 to 24 hrs by LC-MS/MS method; type: ADME, organism-based; parameters: time upper 24 hr, time lower 0.08 hr, dose 5 mg/kg, route intravenous; conditions: in vivo
observable: AUCt (ng·h/mL)

I. CN(c1ncnc2[nH]ccc12)[C@H]1CN(C(=O)CC#N)CC12CC2.Cl
II. CN(c1ncnc2[nH]ccc12)[C@H]1CN(C(=O)CC#N)CC12CC2
Query string: Higher AUCt between I and II ? State the label of the item chosen.
Result string: I
(I: 1800 ng·h/mL, II: 900 ng·h/mL)

1. CN(c1ncnc2[nH]ccc12)[C@H]1CN(C(=O)CC#N)CC12CC2.O=C(O)C(O)C(O)C(=O)O
2. CN(c1ncnc2[nH]ccc12)[C@H]1CN(C(=O)CC#N)CC12CC2.O=C(O)CC(O)(CC(=O)O)C(=O)O
Query string: Could you tell me which of 1 and 2 has the lower AUCt reading? State the label of the item chosen.
Result string: 1

* * *

target: CYP3A4 (Homo sapiens, UniProt P08684); experiment: Inhibition of CYP3A4 in human liver microsomes assessed as remaining activity at 10 uM using midazolam as substrate preincubated for 5 mins followed by addition of NADPH regenerating system and measured after 15 mins by LC-MS/MS analysis relative to control; format: ADME; conditions: probe midazolam, read-out: Activity
Sequence (P08684 whole entry): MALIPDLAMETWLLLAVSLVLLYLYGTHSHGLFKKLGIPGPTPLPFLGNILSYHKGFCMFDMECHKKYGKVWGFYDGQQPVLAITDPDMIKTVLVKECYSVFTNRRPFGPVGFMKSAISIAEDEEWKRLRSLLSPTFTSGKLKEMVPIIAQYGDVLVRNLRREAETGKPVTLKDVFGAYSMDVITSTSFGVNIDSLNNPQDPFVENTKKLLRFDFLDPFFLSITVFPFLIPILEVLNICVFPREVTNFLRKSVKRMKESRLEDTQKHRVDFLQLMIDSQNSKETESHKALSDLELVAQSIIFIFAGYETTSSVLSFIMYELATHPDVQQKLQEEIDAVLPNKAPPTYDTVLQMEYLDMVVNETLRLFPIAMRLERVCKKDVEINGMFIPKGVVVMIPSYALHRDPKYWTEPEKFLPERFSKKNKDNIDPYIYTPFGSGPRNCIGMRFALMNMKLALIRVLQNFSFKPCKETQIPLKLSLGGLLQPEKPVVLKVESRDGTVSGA
observable: activity at 0.25 h, 10 µM (%)

| structure.smiles | unit.symbol | activity at 0.25 h, 10 µM |
| --- | --- | --- |
| CCS(=O)(=O)N1C[C@H](N(C)c2ncnc3[nH]ccc23)C2(CC2)C1 | % | 95.4 |

P. CN(c1ncnc2[nH]ccc12)[C@H]1CN(C(=O)CC#N)CC12CC2
Q. CN(c1ncnc2[nH]ccc12)[C@H]1CN(S(=O)(=O)c2cccc(C#N)c2)CC12CC2
Query string: Could you tell me which of P and Q has the lower activity at 0.25 h, 10 µM reading? State the label of the item chosen.
Result string: Q
(Q: 33.2%, P: 89.7%)

* * *

experiment: Metabolic stability in human plasma assessed as parent compound remaining at 10 uM after 30 mins by LC-MS/MS method; format: ADME, cell-free; conditions: read-out: Stability
observable: remaining at 0.5 h, 10 µM (%)

| structure.smiles | unit.symbol | remaining at 0.5 h, 10 µM |
| --- | --- | --- |
| CN(c1ncnc2[nH]ccc12)[C@H]1CN(C(=O)CC#N)CC12CC2 | % | 95 |
| CN(c1ncnc2[nH]ccc12)[C@H]1CN(S(=O)(=O)c2cccc(C#N)c2)CC12CC2 | % | 96.6 |
